// reported IC50 per item
# study.system: c-kit kinase (Homo sapiens, UniProt P10721)
# Construct: The c-kit (or kinase domain thereof) is an active kinase in AlphaScreen; poly-Histidine tag (in-house protein only) (cleaved yes); host or cells: E. coli BL21(DE3)RIL, co-expressed with PTP1B
# Sequence (P10721 26-976): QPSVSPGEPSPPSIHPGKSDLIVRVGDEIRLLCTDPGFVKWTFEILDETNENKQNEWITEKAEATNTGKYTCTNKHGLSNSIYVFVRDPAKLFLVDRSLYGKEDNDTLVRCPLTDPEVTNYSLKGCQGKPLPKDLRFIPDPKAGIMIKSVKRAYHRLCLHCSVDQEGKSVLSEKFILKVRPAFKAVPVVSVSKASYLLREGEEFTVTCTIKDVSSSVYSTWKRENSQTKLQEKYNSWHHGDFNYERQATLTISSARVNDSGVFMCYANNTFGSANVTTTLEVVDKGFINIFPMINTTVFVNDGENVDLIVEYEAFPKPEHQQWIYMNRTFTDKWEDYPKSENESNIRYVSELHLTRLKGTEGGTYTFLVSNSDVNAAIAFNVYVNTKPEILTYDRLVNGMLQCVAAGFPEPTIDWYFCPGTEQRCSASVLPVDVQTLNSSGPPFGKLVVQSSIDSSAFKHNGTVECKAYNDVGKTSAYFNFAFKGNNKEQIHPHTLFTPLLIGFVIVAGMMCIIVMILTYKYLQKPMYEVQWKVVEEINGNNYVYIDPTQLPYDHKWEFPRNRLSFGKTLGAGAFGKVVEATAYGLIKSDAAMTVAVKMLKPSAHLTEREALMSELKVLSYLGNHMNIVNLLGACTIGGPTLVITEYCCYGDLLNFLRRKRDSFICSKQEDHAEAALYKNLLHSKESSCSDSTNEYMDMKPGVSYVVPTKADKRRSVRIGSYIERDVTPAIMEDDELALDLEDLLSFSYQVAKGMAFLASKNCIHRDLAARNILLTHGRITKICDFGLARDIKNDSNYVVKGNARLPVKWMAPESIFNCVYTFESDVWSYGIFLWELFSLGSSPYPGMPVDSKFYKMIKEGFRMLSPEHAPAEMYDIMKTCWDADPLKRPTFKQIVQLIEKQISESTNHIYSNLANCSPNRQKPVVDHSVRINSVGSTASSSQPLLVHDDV
# experiment: c-Kit biochemical assay, AlphaScreen, 10 μM ATP
# run.conditions: c-kit biochemical inhibitory activity; read-out: Biochemical activity (IC50 μM) Kit

COc1cccc([C@H](C)NC(=O)N2CC=C(c3ncnc4cc(-c5cn(C)nc5C)sc34)CC2)c1: 1 to 10 µM

IN: What value of measured IC50 is listed for CCS(=O)(=O)Nc1cccc(-c2ncnc3[nH]c(-c4ccc(F)cc4)cc23)c1 ?
OUT: 1 to 10 µM

IN: Any idea what its IC50 is? The compound is COc1cccc([C@H](C)NC(=O)N2CCN(c3ncnc4[nH]c(-c5ccc(C#N)cc5)cc34)CC2(C)C)c1
OUT: 10 to 200 µM

IN: Look at this compound and give its reported IC50. COc1cc(-c2cc3c(N4CCN(C(=O)N[C@@H](C)c5cccc(OC(F)F)c5)C(C)(C)C4)ncnc3[nH]2)ccn1
OUT: 1 to 10 µM

IN: Give the measured IC50 of C[C@H](NC(=O)N1CCN(c2ncnc3[nH]c(-c4ccc(F)cc4)cc23)C[C@H]1C)c1cccc(OC(F)F)c1 .
OUT: 1 to 10 µM

====

Property: IC50; scope: individual compounds
# study.system: c-kit kinase (Homo sapiens, UniProt P10721)
# Construct: The c-kit (or kinase domain thereof) is an active kinase in AlphaScreen; poly-Histidine tag (in-house protein only) (cleaved yes); host or cells: E. coli BL21(DE3)RIL, co-expressed with PTP1B
# experiment: c-Kit biochemical assay, AlphaScreen, 10 μM ATP
# run.conditions: c-kit biochemical inhibitory activity; read-out: Biochemical activity (IC50 μM) Kit

COc1ccc(CNS(=O)(=O)c2ccc(-c3ncnc4[nH]c(-c5ccc(F)cc5)cc34)cc2)cc1: 10 to 200 µM
C[C@@H]1CN(c2ncnc3[nH]c(-c4ccncc4)cc23)CCN1C(=O)Nc1ccc(N(C)C)cc1: 1 to 10 µM

IN: What IC50 value was documented for this compound, COc1cccc([C@H](C)NC(=O)N2CCN(c3ncnc4[nH]c(-c5ccc(F)cc5)cc34)CC2)c1 ?
OUT: 1 to 10 µM

IN: Record request: IC50 value, item O=C(Nc1cccc(C(F)(F)F)c1)N1CCN(c2ncnc3[nH]c(-c4cccnc4)cc23)CC1
OUT: 0.0001 to 1 µM

====

This section presents molecules with their documented IC50 values.
# study.system: c-kit kinase (Homo sapiens, UniProt P10721)
# Construct: The c-kit (or kinase domain thereof) is an active kinase in AlphaScreen; poly-Histidine tag (in-house protein only) (cleaved yes); host or cells: E. coli BL21(DE3)RIL, co-expressed with PTP1B
# experiment: c-Kit biochemical assay, AlphaScreen, 10 μM ATP
# run.conditions: c-kit biochemical inhibitory activity; read-out: Biochemical activity (IC50 μM) Kit

A selection of reference data follows.
Cc1ccc(S(=O)(=O)Nc2ccc(-c3ncnc4[nH]c(C)nc34)cc2)cc1 [P-0450]: 10 to 200 µM
Cn1cc(-c2cc3c(N4CCC(NS(=O)(=O)c5cc(Cl)cs5)CC4)ncnc3[nH]2)cn1 [P-0462]: 1 to 10 µM
O=S(=O)(NC1CC1)c1cccc(-c2ncnc3[nH]c(-c4ccc(F)cc4)cc23)c1 [P-0429]: 0.0001 to 1 µM
O=C(NCc1ccc(F)cc1)N1CCN(c2ncnc3[nH]cc(-c4ccccc4)c23)CC1 [P-0226]: 1 to 10 µM
Cc1cc2c(-c3ccc(NS(C)(=O)=O)cc3)ncnc2[nH]1 [P-0379]: 10 to 200 µM

IN: Hi! What's the reported IC50 for O=C(NCc1ccc(F)cc1)N1CCN(c2ncnc3[nH]ccc23)CC1 [P-0182] on c-kit kinase (Homo sapiens, UniProt P10721)?
OUT: 10 to 200 µM

IN: Write down the reported IC50 of CS(=O)(=O)Nc1ccc(-c2cc3c(N4CCN(C(=O)Nc5ccc(OC(F)(F)F)cc5)CC4)ncnc3[nH]2)cc1 [P-0077] , test system: c-kit kinase (Homo sapiens, UniProt P10721).
OUT: 0.0001 to 1 µM

====

# study.system: c-kit mutant D816V (Homo sapiens, UniProt P10721, D816V/DEL694-753)
# Construct: residues 551-934, kinase insertion domain residues 694-753 deleted; 6x-histidine (N); made in house; host or cells: E. coli Arctic Express (DE3) RIL (Stratagene)
# Sequence (P10721 with tags, fused parts or gaps DEL694-753/D816V): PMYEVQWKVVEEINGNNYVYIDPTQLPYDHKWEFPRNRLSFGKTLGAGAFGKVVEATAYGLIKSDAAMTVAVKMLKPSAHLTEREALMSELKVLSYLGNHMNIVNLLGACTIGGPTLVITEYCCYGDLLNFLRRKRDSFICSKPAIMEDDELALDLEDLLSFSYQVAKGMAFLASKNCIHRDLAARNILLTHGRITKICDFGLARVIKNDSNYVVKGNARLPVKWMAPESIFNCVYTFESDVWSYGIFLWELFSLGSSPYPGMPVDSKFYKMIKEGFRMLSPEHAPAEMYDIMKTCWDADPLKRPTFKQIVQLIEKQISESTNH
# experiment: c-Kit mutant D816V biochemical assay, AlphaScreen
# run.conditions: c-kit D816V biochemical inhibitory activity; read-out: Biochemical activity (IC50 μM) Kit D816V
Below, each entry is listed with its recorded IC50.

These recorded examples may help you get a feel for the data.
C[C@H](NC(=O)N1CCN(c2ncnc3[nH]c(-c4ccc(F)cc4)cc23)CC1(C)C)c1cccc(Cl)c1: 0.0001 to 1 µM
COc1cccc([C@@H](C)NC(=O)N2CCN(c3ncnc4cc(-c5cn(C)nc5C)sc34)C[C@H]2C)c1: 0.0001 to 1 µM

Read the next record carefully.
IN: Could you tell me which IC50 is on file for O=C(Nc1ccc(OC(F)(F)F)cc1)N1CCN(c2ncnc3[nH]c(-c4ccc(C5CC5)nc4)cc23)CC1 ?
OUT: 10 to 200 µM

====

# study.system: c-kit mutant D816V (Homo sapiens, UniProt P10721, D816V/DEL694-753)
# Construct: residues 551-934, kinase insertion domain residues 694-753 deleted; 6x-histidine (N); made in house; host or cells: E. coli Arctic Express (DE3) RIL (Stratagene)
# experiment: c-Kit mutant D816V biochemical assay, AlphaScreen
# run.conditions: c-kit D816V biochemical inhibitory activity; read-out: Biochemical activity (IC50 μM) Kit D816V
We begin with a simple list: items and their reported IC50.

Recorded results for 3 compounds are shown here.
CN(C)C(=O)c1cccc(-c2cc3c(N4CCN(C(=O)Nc5ccc(OC(F)(F)F)cc5)CC4)ncnc3[nH]2)c1: 0.0001 to 1 µM
C[C@H](NC(=O)N1CCN(c2ncnc3[nH]c(-c4ccc(F)cc4)cc23)CC1)c1cccc(OC(F)(F)F)c1: 1 to 10 µM
COc1cccc([C@@H](C)NC(=O)N2CCN(c3ncnc4[nH]c(-c5ccc(F)cc5)cc34)CC2)c1: 10 to 200 µM

IN: So what's the measured IC50 for this one? COc1ccc(S(=O)(=O)Nc2ccc(-c3ncnc4[nH]c(C)cc34)cc2)cn1
OUT: 1 to 10 µM

IN: Tell me the measured IC50 of CCCS(=O)(=O)Nc1ccc(-c2ncnc3[nH]c(C)cc23)cc1 , please.
OUT: 0.0001 to 1 µM

IN: What value of measured IC50 is listed for CN(C)c1ccc(NC(=O)N2CCN(c3ncnc4[nH]c(-c5ccc(C#N)cc5)cc34)CC2)cc1 ?
OUT: 1 to 10 µM

IN: Please look up its IC50: O=S(=O)(Nc1ccc(-c2ncnc3[nH]c(Cl)cc23)cc1)c1ccc(OC(F)F)cc1
OUT: 1 to 10 µM

IN: Any idea what its IC50 is? The compound is Cc1cc2c(-c3ccc(NS(=O)(=O)c4ccc(F)cc4)cc3)ncnc2[nH]1
OUT: 1 to 10 µM

IN: Entry under review: Cc1nn(C)cc1-c1cc2ncnc(C3CCN(C(=O)NCc4ccc(F)cc4)CC3)c2s1 . Reported IC50?
OUT: 0.0001 to 1 µM

IN: Tell me the measured IC50 of Fc1ccc(-c2cc3c(-c4ccc(NCc5ccc(C(F)(F)F)nc5)nc4)ncnc3[nH]2)cc1 , please.
OUT: 1 to 10 µM

IN: IC50 for O=C(NCc1cccc(OC(F)F)c1)N1CCN(c2ncnc3[nH]c(-c4ccc(F)cc4)cc23)CC1 ?
OUT: 1 to 10 µM

====

# study.system: c-kit kinase (Homo sapiens)
# Construct: The c-kit (or kinase domain thereof) is an active kinase in AlphaScreen; poly-Histidine tag (in-house protein only) (cleaved yes); host or cells: E. coli BL21(DE3)RIL, co-expressed with PTP1B
# experiment: c-Kit biochemical assay, AlphaScreen, 10 μM ATP
# run.conditions: c-kit biochemical inhibitory activity; read-out: Biochemical activity (IC50 μM) Kit
reported.endpoint: IC50

Solved entries:
COc1cc2ncnc(-c3ccc(NS(=O)(=O)C4CC4)cc3F)c2cc1OCCCN1CCOCC1 [P-0251]: 10 to 200 µM
COc1cccc([C@H](C)NC(=O)N2CCN(c3ncnc4cc(N5CCOCC5)sc34)CC2(C)C)c1 [P-0560]: 1 to 10 µM
O=S(=O)(c1ccccc1)N1CCN(c2ncnc3[nH]ccc23)CC1 [P-0200]: 10 to 200 µM
Cc1nn(C)cc1-c1cc2c(N3CCN(C(=O)N[C@@H](C)c4ccc(Cl)cc4)C(C)(C)C3)ncnc2[nH]1 [P-0723]: 0.0001 to 1 µM
Cc1nn(C)cc1-c1cc2c(N3CCN(C(=O)N[C@@H](C)c4ccc(F)cc4)CC3)ncnc2[nH]1 [P-0724]: 0.0001 to 1 µM
Cc1ccc(S(=O)(=O)Nc2ccc(-c3ncnc4[nH]c(C)c(C)c34)cc2)cc1 [P-0449]: 1 to 10 µM
Cn1cc(-c2cc3c(N4CCN(C(=O)Nc5ccc(F)cc5)CC4)ncnc3[nH]2)cn1 [P-0096]: 0.0001 to 1 µM
Cn1cc(-c2cc3ncnc(N4CCN(C(=O)NCc5ccccc5)CC4)c3s2)cn1 [P-0626]: 10 to 200 µM
O=S(=O)(Nc1ccc(-c2ncnc3[nH]c(-c4ccc(F)cc4)cc23)cc1F)C1CC1 [P-0410]: 1 to 10 µM
C[C@H](NC(=O)N1CCN(c2ncnc3[nH]c(-c4ccc(F)cc4)cc23)CC1)c1cccc(OC(F)(F)F)c1 [P-0075]: 10 to 200 µM

// next entry
IN: What value of measured IC50 is listed for N#Cc1c[nH]c2ncnc(N3CCN(C(=O)NCc4ccc(F)cc4)CC3)c12 [P-0158] ?
OUT: 10 to 200 µM
